Reference for the values: ChEMBL document CHEMBL2163326

Measured target: Adrenergic receptor alpha-1 (Rattus norvegicus, UniProt P15823+P23944+P43140)
Sequence (P15823 whole entry): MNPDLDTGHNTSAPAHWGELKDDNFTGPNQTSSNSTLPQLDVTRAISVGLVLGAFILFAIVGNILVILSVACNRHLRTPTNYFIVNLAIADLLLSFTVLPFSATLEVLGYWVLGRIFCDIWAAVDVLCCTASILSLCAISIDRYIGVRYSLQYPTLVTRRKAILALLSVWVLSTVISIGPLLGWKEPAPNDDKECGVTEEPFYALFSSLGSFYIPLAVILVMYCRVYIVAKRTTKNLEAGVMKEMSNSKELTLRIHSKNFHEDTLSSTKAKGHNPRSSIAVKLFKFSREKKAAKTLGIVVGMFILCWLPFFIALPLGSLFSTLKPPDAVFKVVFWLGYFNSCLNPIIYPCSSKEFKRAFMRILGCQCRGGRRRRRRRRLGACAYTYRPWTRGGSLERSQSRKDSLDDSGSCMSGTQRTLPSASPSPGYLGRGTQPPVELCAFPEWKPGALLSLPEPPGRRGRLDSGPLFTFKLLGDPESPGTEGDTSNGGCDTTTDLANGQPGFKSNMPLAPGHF
Sequence (P23944 whole entry): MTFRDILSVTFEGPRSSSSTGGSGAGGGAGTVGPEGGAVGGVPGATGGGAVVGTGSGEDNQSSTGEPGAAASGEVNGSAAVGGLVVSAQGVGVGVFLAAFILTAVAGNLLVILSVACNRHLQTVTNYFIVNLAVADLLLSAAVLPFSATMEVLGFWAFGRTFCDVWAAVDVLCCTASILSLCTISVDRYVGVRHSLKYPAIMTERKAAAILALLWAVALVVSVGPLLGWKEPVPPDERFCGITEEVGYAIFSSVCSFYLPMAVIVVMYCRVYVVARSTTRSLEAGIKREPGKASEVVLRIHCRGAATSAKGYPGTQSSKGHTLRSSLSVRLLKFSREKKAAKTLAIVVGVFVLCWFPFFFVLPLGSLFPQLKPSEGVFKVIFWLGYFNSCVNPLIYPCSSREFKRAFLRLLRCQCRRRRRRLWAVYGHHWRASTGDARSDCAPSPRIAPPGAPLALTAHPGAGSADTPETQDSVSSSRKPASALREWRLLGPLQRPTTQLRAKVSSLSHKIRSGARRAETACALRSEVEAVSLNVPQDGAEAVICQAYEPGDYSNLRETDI
Sequence (P43140 whole entry): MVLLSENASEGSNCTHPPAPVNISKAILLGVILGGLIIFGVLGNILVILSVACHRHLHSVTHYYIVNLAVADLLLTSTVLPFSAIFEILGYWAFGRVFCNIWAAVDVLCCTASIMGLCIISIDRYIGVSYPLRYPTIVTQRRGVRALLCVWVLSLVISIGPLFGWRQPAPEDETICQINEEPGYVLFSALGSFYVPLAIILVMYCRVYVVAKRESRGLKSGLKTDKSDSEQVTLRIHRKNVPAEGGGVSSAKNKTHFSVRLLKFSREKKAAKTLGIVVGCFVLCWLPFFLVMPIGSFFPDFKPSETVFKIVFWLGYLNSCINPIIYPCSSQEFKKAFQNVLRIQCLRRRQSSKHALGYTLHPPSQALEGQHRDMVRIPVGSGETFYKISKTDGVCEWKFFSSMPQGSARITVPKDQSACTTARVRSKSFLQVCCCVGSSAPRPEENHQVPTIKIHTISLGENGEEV
Method description: Displacement of [3H]prazoin from rat cerebral cortex adrenergic alpha1 receptor
Type: tissue-based
Endpoint label: Ki (nM)
Kindly provide the numeric value in nM only, without the unit symbol.

Known Ki results, listed for orientation:
O=[N+]([O-])c1ccc(-c2ccccc2N2CCNCC2)cc1    105
COc1ccc(-c2ccccc2N2CCNCC2)cc1    156

Form: compound = `Cc1ccc(-c2ccccc2N2CCNCC2)cc1C` ; Ki = 165

Measured Ki, `c1ccc(-c2ccccc2N2CCNCC2)cc1` : 59.1
